Biological target: MBP-FoxP1dN (Mus musculus, UniProt P58462 326-579)
Sequence: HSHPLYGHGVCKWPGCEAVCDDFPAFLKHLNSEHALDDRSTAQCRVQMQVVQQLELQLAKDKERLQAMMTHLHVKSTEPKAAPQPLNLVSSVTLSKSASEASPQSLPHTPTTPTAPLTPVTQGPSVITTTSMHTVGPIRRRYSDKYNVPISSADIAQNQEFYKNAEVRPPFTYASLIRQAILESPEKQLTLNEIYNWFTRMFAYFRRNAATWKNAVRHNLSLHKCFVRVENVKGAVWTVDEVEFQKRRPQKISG
Assay: PD-seq (MBP pull-down with sequencing); 20 mM Tris-HCl pH 7.5, 100 mM NaCl, 1.5 mM MgCl2, 0.4 uM protein, 0.1 uM dsDNA library, 30 min, room temperature, amylose pull-down; high values mean tight binding
Details: protein: recombinant; tags: His6-MBP; chain copies: 2; dsDNA, one strand shown
Whole data set: some 16,000 sequences, median “rpm ratio (pull-down/input)” near 0.94, cut for the highest 2% near 1.7. Only a selection was taken, and the highest values are over-represented in it overall.
result.type: binding signal

## Input I'd like to know its binding signal. The sequence in question is "GATGATTGTTCTCCCAGCTGATGAATTGTTATTCTCGAGTAAACAAATTTTCCTAATCTTTCTGTTCAAGCGCCATCTAC"
## Output 2.03 RPM ratio (pull-down/input)

## Input I have this sequence here, "GATGATTGTTCTCCCAGCTGATGAATTGGCCTTCTCGAGTAAACAAATTTTCCTAATCTTTCTGTTCAAGCGCCATCTAC" , and I need its recorded binding signal.
## Output 0.772 RPM ratio (pull-down/input)

## Input Fill blank: measured binding signal of the sequence "GATGATTGTTCTCCCAGCTGATGAATTTTTATTCTCGAGTAAACAAATTTTCCTAATCTTTCTGTTCAAGCGCCATCTAC" is ____.
## Output 1.06 RPM ratio (pull-down/input)

## Input Query: binding signal; subject: "GATGATTGTTCTCCCAGCTGATGAATTGGTTATTTCGAGTAAACAAATTTTCCTAATCTTTCTGTTCAAGCGCCATCTAC"
## Output 1.13 RPM ratio (pull-down/input)

Where do the numbers come from? From paper PMC12820563.
